TEST_CONTEXT: 297.9 K; 101.33 kPa; Liquid; Vibrating tube method
MEASURE_NAME: mass density (kg/m3)
Respond with the bare value in kg/m3.

Item: CCC(=O)[O-].C[NH2+]CCO [2-hydroxy-N-methylethanaminium propionate] | mass density: 1071.43

Item: CCCC(=O)[O-].C[NH2+]CCO [N-methyl-2-hydroxyethylammonium butanoate] | mass density: 1039.42

Item: CCCCC(=O)[O-].C[NH2+]CCO [2-hydroxy-N-methylethanaminium pentanoate] | mass density: 1016.38

Item: C[NH2+]CCO.O=C[O-] [2-hydroxy-N-methylethanaminium formate] | mass density: 1128.38

Item: CC(C)C(=O)[O-].C[NH2+]CCO [2-hydroxy-N-methylethanaminium isobutyrate] | mass density: 1043.52

Item: CC(=O)[O-].C[NH2+]CCO [N-methyl-2-hydroxyethylammonium acetate] | mass density: 1100.97
